target: BACE1 (Homo sapiens, UniProt P56817); test: In Vitro Enzymatic BACE FRET (Fluorescence Resonance Energy Transfer) Assay; assay type: biochemical; settings: in vitro BACE FRET enzyme assay, IC50 class symbols; read-out: BACE1 FRET assay
Sequence (P56817 46-501, species assumed): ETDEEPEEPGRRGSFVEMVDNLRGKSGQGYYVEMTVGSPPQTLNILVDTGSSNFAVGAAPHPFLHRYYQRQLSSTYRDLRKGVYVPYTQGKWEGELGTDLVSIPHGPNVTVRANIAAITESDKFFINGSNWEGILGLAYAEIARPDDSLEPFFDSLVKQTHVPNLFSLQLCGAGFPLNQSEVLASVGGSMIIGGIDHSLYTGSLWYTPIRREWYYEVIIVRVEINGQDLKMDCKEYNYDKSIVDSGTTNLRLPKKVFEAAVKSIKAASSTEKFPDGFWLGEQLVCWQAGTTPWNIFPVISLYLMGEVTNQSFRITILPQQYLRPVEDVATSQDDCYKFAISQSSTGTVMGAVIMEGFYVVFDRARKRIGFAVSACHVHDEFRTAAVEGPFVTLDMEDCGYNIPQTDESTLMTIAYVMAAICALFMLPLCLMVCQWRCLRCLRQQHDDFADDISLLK
IC50 overview

// below: answered compounds
• CC(C)C[C@@H]1CN(c2ccc3c(c2)[C@]2(COC(N)=N2)c2cc(-c4cccnc4)ccc2O3)CCO1 [compound 360] = 100 to 1000 nM
• NC1=N[C@@]2(CO1)c1cc(-c3cc(Cl)ccc3F)ccc1Oc1ncc(C3CCOCC3)cc12 [compound 404] = < 100 nM

Field: next compound
Bench note: what IC50 did CC1(COc2cnc3c(c2)[C@]2(COC(N)=N2)c2cc(-c4ccccc4Cl)ccc2O3)COC1 [compound 414] show?
< 100 nM

All values here come from patent US8426447B2.
